assay: in vivo; details: both, SD, rat, iv, 0.1 mg/kg
Residues, ends and D or L forms follow the SMILES beside them.
ENDPOINT_NAME: Tmax (min)
Just the number in min, nothing appended.

Q. Give the measured Tmax of CC(=O)N[C@H](C(=O)N[C@@H](CO)C(=O)N[C@@H](CCCNC(=N)N)C(=O)N[C@@H](CCCNC(=N)N)C(=O)N[C@@H](CCCNC(=N)N)C(N)=O)C(C)C [CN-105, Ac-VSRRR-NH2] (Ac-VSRRR-NH2) .
A. 2.3

###

assay: in vivo; settings: both, SD, rat, iv, 0.3 mg/kg
Residues, ends and D or L forms follow the SMILES beside them.
ENDPOINT_NAME: C0 (ng/mL)
Report as a plain number; the unit ng/mL is understood.

Q. # C0 lookup, item CC(=O)N[C@H](C(=O)N[C@@H](CO)C(=O)N[C@@H](CCCNC(=N)N)C(=O)N[C@@H](CCCNC(=N)N)C(=O)N[C@@H](CCCNC(=N)N)C(N)=O)C(C)C [CN-105, Ac-VSRRR-NH2] (Ac-VSRRR-NH2)
A. 2250

###

assay: in vivo; conditions: both, monkey, iv, 0.5 mg/kg
Residues, ends and D or L forms follow the SMILES beside them.
ENDPOINT_NAME: Vd (L/kg)
Write the number in L/kg without appending the unit.

Q. Query (compound): CC(=O)N[C@H](C(=O)N[C@@H](CO)C(=O)N[C@@H](CCCNC(=N)N)C(=O)N[C@@H](CCCNC(=N)N)C(=O)N[C@@H](CCCNC(=N)N)C(N)=O)C(C)C [CN-105, Ac-VSRRR-NH2] (Ac-VSRRR-NH2) ; field requested: Vd
A. 0.642

###

experiment: in vivo; conditions: both, SD, rat, iv, 3 mg/kg
Residues, ends and D or L forms follow the SMILES beside them.
ENDPOINT_NAME: half-life (min)
Respond numerically; units are min and should not be typed.

Q. Need half-life, item CC(=O)N[C@H](C(=O)N[C@@H](CO)C(=O)N[C@@H](CCCNC(=N)N)C(=O)N[C@@H](CCCNC(=N)N)C(=O)N[C@@H](CCCNC(=N)N)C(N)=O)C(C)C [CN-105, Ac-VSRRR-NH2] (Ac-VSRRR-NH2)
A. 52.8

###

experiment: in vivo; conditions: both, monkey, iv, 2.5 mg/kg
Residues, ends and D or L forms follow the SMILES beside them.
ENDPOINT_NAME: half-life (h)
# unit: h | format: bare number

Q. So what's the measured half-life for this one? CC(=O)N[C@H](C(=O)N[C@@H](CO)C(=O)N[C@@H](CCCNC(=N)N)C(=O)N[C@@H](CCCNC(=N)N)C(=O)N[C@@H](CCCNC(=N)N)C(N)=O)C(C)C [CN-105, Ac-VSRRR-NH2] (Ac-VSRRR-NH2)
A. 1.58

###

assay: in vivo; conditions: both, monkey, iv, 2.5 mg/kg
Residues, ends and D or L forms follow the SMILES beside them.
ENDPOINT_NAME: Cmax
A bare number is not enough; add the unit after it.

Q. What value of Cmax has been recorded for this entry: CC(=O)N[C@H](C(=O)N[C@@H](CO)C(=O)N[C@@H](CCCNC(=N)N)C(=O)N[C@@H](CCCNC(=N)N)C(=O)N[C@@H](CCCNC(=N)N)C(N)=O)C(C)C [CN-105, Ac-VSRRR-NH2] (Ac-VSRRR-NH2)
A. 7460 ng/mL

Values compiled from paper PMC8787096.
